All figures here come from patent US7713949B2.

# Tested on: MDCK cell monolayers
# Protocol: Effect on [14C]-mannitol flux across MDCK cell monolayers
# Assay type: cell-based, canine
# Run Parameters: MDCK cells, apical, flux measured between 30 and 60 minutes of treatment, mean ± SD
Quantity Measured: EC10x (concentration that increases mannitol flux by ten fold) (µM)

# Compound, Result
measured = [
    ("CCCCCCCCCCCCOP(=O)([O-])OCC[N+](C)(C)C", 900),
    ("O=c1oc2ccccc2cc1[N+](=O)[O-] [3-nitrocoumarin, reference compound]", 34),
    ("COc1ccc2c(c1)CCC1C2CCC2(C)C(NCCCCCCN3C(=O)C=CC3=O)CCC12 (stereo not shown) [U-73,122, reference compound]", 6),
    ("CCCCCCCCCCCCCCCCCCCCOP(=O)([O-])OCC[N+](C)(C)C", 73),
    ("CCCCCCCCCCCCCCCCCCOP(=O)([O-])OCC[N+](C)(C)C", 66),
    ("CCCCCCCCCCCCCCOP(=O)([O-])OCC[N+](C)(C)C", 91),
    ("CCCCCCCCCCCCCCCCOP(=O)([O-])OCC[N+](C)(C)C", 30),
]
